Provide the reported growth inhibition of each item.
- procedure_details: NCI Yeast Anticancer Drug Screen. Data for the bub3 strain (AID 167)
- particulars: S. cerevisiae bub3 mutant strain, at 50.0 µM, stronger effect = higher value
About 79,000 compounds went through this panel and 15% of them were active in at least one assay; those are over-represented in the sample as a whole.
Numbers only, in %.

molecule	units_of_measure	growth inhibition
CCOC(C#CC(C)=O)OCC	%	46
O=C1C(/C=N\C(=S)NCc2ccccc2)=C(O)c2ccccc21	%	-3.45
O=Nc1c(O)[nH]c2c(Cl)cccc12	%	-18.2

Each of the following entries comes with a recorded value; kindly state growth inhibition for each.
1. CCOC(=O)CC(=O)c1sc(SC)c(C#N)c1N
2. CC(=O)OC1C(O)C(C)OC(OC2C(C)OC(OC(=O)[C@@H]3CC[C@@H]4[C@H](C3)OC3(C[C@@H](OC(=O)/C=C/c5ccccc5)[C@@H](C)CO3)[C@@]43CO3)C(O)C2OC(C)=O)C1O (stereo not given in full)
3. CC(C)CNC(=S)N/N=C/c1ccc(C(C)C)cc1
4. CN1CCC=C(COC(=O)C(C)(C)C)C1
5. C[C@@H]1CC[C@]2(C(=O)O)CC[C@]3(C)C(=CC[C@@H]4[C@@]5(C)CC[C@H](O)C(C)(C)[C@@H]5CC[C@]43C)[C@@H]2[C@]1(C)O

[1.6, 91.1, -13.1, 5.45, 26.4]

Each of the following entries comes with a recorded value; kindly state growth inhibition for each.
1. CSc1n[nH]c(N)c1C(=O)Nc1ccc(C)cc1
2. c1ccc2c(-c3c[nH]c4ccccc34)c[nH]c2c1

1: 49.2; 2: -8.75
